- assayExplanation: CHI Log D procedure
- Type: physicochemical
- measurementContext: pH 7.4

compound | CHI Log D
CC(=O)N[C@@H](Cc1ccccc1)C(=O)N[C@@H](CC(=O)O)C(=O)N[C@@H](C)C(=O)N[C@]1(C)CCCCCCC=CCOC(=O)N2CC[C@@](C(=O)N[C@@H](CC(=O)O)C(=O)N[C@@H](Cc3c[nH]c4ccccc34)C(=O)N[C@@H](CCC(N)=O)C(N)=O)(C2)NC(=O)[C@H](C(C)C)NC(=O)[C@H](Cc2ccccc2)NC(=O)[C@H](C)NC(=O)[C@H](C)NC(=O)[C@H](CC(=O)O)NC(=O)[C@H](CC(=O)O)NC1=O [I-121] | 0.825
CC(=O)N1CCC[C@]12CC=CCCCC1(CCCC=CCCCCCC[C@@](C)(C(=O)N[C@@H](Cc3ccccc3)C(=O)N[C@@H](Cc3c[nH]c4ccccc34)C(=O)N[C@@H](C)C(N)=O)NC(=O)[C@H](C(C)C)NC(=O)[C@H](Cc3ccccc3)NC(=O)[C@H](C)NC(=O)[C@H](C)NC(=O)[C@H](CC(=O)O)NC(=O)[C@H](CC(=O)O)NC1=O)NC(=O)[C@H](C)NC(=O)[C@H](CC(=O)O)NC2=O (some centres unmarked) [I-291] | 2.195
CC(=O)N1CCC[C@]12CC=CCCCC1(CCCC=CCCCCCC[C@@](C)(C(=O)N[C@@H](Cc3ccccc3)C(=O)N[C@@H](Cc3csc4ccccc34)C(=O)N[C@@H](Cc3c[nH]cn3)C(N)=O)NC(=O)[C@H](CC(N)=O)NC(=O)[C@H](Cc3ccccc3)NC(=O)[C@H](C)NC(=O)[C@H](C)NC(=O)[C@H](CC(=O)O)NC(=O)[C@H](CC(=O)O)NC1=O)NC(=O)[C@H](CCC(C)C)NC(=O)[C@H](CC(=O)O)NC2=O (some centres unmarked) [I-583] | 2.563
CC(=O)N1CCC[C@]12CC=CCCCC1(CCCC=CCCCOC(=O)N3CC[C@@](C(=O)N[C@@H](Cc4cccc(Cl)c4)C(=O)N[C@@H](Cc4csc5ccccc45)C(=O)N[C@@H](CCC(N)=O)C(N)=O)(C3)NC(=O)[C@H](CC(N)=O)NC(=O)[C@H](Cc3ccccc3)NC(=O)[C@H](C)NC(=O)[C@H](C)NC(=O)[C@H](CN(CC(=O)O)CC(F)(F)F)NC(=O)[C@H](CC(=O)O)NC1=O)NC(=O)[C@H](CC(C)(C)C)NC(=O)[C@H](CC(=O)O)NC2=O (some centres unmarked) [I-926] | 2.406
CC(=O)N1CCC[C@]12CC=CCCCC1(CCCC=CCCCCOC(=O)N3CC[C@@](C(=O)N[C@@H](Cc4ccsc4)C(=O)N[C@@H](Cc4csc5ccccc45)C(=O)N[C@@H](CCC(N)=O)C(=O)N[C@H](C)C(N)=O)(C3)NC(=O)[C@H](CC(N)=O)NC(=O)[C@H](Cc3ccccc3)NC(=O)[C@H](C)NC(=O)[C@H](C)NC(=O)[C@H](CC(=O)O)NC(=O)[C@H](CC(=O)O)NC1=O)NC(=O)[C@H](CC(C)(C)C)NC(=O)[C@H](CC(=O)O)NC2=O (some centres unmarked) [I-830] | 2.042
